- MEASUREMENT_PROTOCOL: viability gain of MRP-1-high H69AR cells under doxorubicin, pilot screen, MRP-1 activator project, CellTiter-Glo, duplicate (AID 807);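 also: compound pretreatment 18-22 h then 72 h combined with doxorubicin; 0% = doxorubicin alone and 100% = vehicle without doxorubicin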
- CONDITION_NOTES: H69AR viability with doxorubicin, CellTiter-Glo luminescence; at 10 µM; stronger effect = higher value
RECORDED_ENDPOINT: viability increase (%)
Write the answer as a number in %, unit excluded.

molecule="O=C(NCCN1C(=O)C2C3C=CC(C3)C2C1=O)Nc1cccnc1 (stereo unspecified)" recorded_endpoint="viability increase" unit_descriptor=% experimental_value=-1.57
molecule="COC(=O)c1ccc2c(c1)N(Cc1cc(C)ccc1C)C(=O)c1ccccc1S2=O (stereo unspecified)" recorded_endpoint="viability increase" unit_descriptor=% experimental_value=-2.53
molecule=O=C(Nc1c(C(=O)N2CCCCC2)cnn1-c1ccccc1)c1ccccc1 recorded_endpoint="viability increase" unit_descriptor=% experimental_value=-1.28
molecule="CCOC(=O)C1CCCN(C(=O)C2CCN(c3nnc(-n4cccc4)s3)CC2)C1 (stereo unspecified)" recorded_endpoint="viability increase" unit_descriptor=% experimental_value=-2.17
molecule="COc1ccc(C2N3CC4(C)CN2CC(C)(C3)C4)cc1OC (stereo unspecified)" recorded_endpoint="viability increase" unit_descriptor=% experimental_value=-0.73
molecule="CC1=C(C(=O)OCc2ccc3c(c2)OCO3)C(c2ccccc2)NC(=O)N1 (stereo unspecified)" recorded_endpoint="viability increase" unit_descriptor=% experimental_value=-4.88

Summary for this molecule, O=C(Nc1ccccc1C(=O)NC(Cc1c[nH]c2ccccc12)C(=O)O)c1ccco1 (stereo unspecified) : viability increase is -2.96

Summary for this molecule, "CCCC(=O)Nc1cc(C)c(NC(=O)Cc2ccccc2)cn1" : viability increase is -1.76

Summary for this molecule, "CC(=O)c1c(Nc2ccc3c(c2)OCCO3)oc(C)cc1=O" : viability increase is -5.39

Summary for this molecule, "Cc1cc(Nc2ccc(Br)cc2F)n2ncnc2n1" : viability increase is -3.52

Summary for this molecule, "c1cc2c3c(cccc3c1)C(N1CCCCC1)=N2" : viability increase is -4.54

====

Reported viability values for a set of compounds
- MEASUREMENT_PROTOCOL: reversal of MRP1-mediated doxorubicin resistance, pilot screen, H69AR cells, doxorubicin co-treatment (AID 601)
- CONDITION_NOTES: H69AR cells, CellTiter-Glo, 72 h; compound alone cytotoxicity; at 10 µM
Write the answer as a number in %, unit excluded.

These solved cases illustrate the format of a correct answer.
compound=O=S(=O)(NC1CCCC1)c1ccccc1Cl unit_descriptor=% experimental_value=101
compound="O=C(NCC1CCCCN1)c1cc(OCC(F)(F)F)ccc1OCC(F)(F)F (stereo not drawn)" unit_descriptor=% experimental_value=97.9
compound=CC(C)C(=O)Nc1cccc(NC(=O)c2cccnc2)c1 unit_descriptor=% experimental_value=97.9

Summary for this compound, "COCCSc1ccccc1C(=O)Nc1nncs1" : viability is 92.5

Summary for this compound, "CN(C=O)CP(=O)(O)CCN1CCCC1=O" : viability is 99.4

Summary for this compound, "O=C(NCc1ccco1)c1cccn2c(=O)c3sccc3nc12" : viability is 58.4

Summary for this compound, "O=C1CCC(=O)N1OCCCOc1ccc(Br)cc1Cl" : viability is 93.5

Summary for this compound, Cc1ccsc1C(C(=O)NC1CCCCC1)N(C(=O)Cc1cccs1)C1CC1 (stereo not drawn) : viability is 86.4

====

Reported viability increase values for a set of compounds
- MEASUREMENT_PROTOCOL: viability gain of MRP-1-high H69AR cells under doxorubicin, pilot screen, MRP-1 activator project, CellTiter-Glo, duplicate (AID 807);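 also: compound pretreatment 18-22 h then 72 h combined with doxorubicin; 0% = doxorubicin alone and 100% = vehicle without doxorubicin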
- CONDITION_NOTES: H69AR viability with doxorubicin, CellTiter-Glo luminescence; at 10 µM; stronger effect = higher value
Write the answer as a number in %, unit excluded.

These solved cases illustrate the format of a correct answer.
compound=CN(Cc1ccccc1)c1nnc(N)s1 experimental_value=-2
compound=O=C(NCCCN1CCCC1=O)c1ccc2c(c1)ncn2C1CCCCC1 experimental_value=1.87

Summary for this compound, "COc1ccc(OC)c2c1sc(=NC(=O)C(C)C)n2C" : viability increase is -3.34

Summary for this compound, "Cn1nc(CC(=O)NC2CCCCCC2)c2ccccc2c1=O" : viability increase is -2.58

Summary for this compound, "CCCNC(=O)c1noc2c1CCc1ccccc1-2" : viability increase is -1.54

====

- MEASUREMENT_PROTOCOL: growth suppression of PTEN-deleted HCT116, pilot screen, cell-based, HCT116 clonal line, CellTiter-Glo (AID 824);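 also: 0% = 20 µM Hyamine control and 100% = vehicle cell control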
- CONDITION_NOTES: 60 h, at 10 µM, stronger effect = lower value
Results filed as inconclusive are left out. Active and inactive are the calls of the source.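 The calls were made as follows: active = viability at or below 27.92% in each of two runs, the all-compound median minus 4 SD; inconclusive = no clear call, values can overlap the other calls; inactive = the rest.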
RECORDED_ENDPOINT: viability

compound=c1cnn(-c2nc(N3CCOCC3)nc(N3CCOCC3)n2)c1 experimental_value="72.9% (inactive)"

Summary for this compound, Nc1nc2n(n1)C(c1ccc(Cl)cc1)CC(c1ccc(F)cc1)N2 (stereo unspecified) : viability is 80.8% (inactive)

Summary for this compound, CCc1ccc(C2CC(c3ccc(F)cc3)Nc3nc(N)nn32)cc1 (stereo unspecified) : viability is 95.4% (inactive)

Summary for this compound, "COC(=O)CN1C(=O)CC(C)(C)Sc2ccccc21" : viability is 101% (inactive)

Summary for this compound, "CCn1nc(C(=O)NC2=NCCS2)c2ccccc2c1=O" : viability is 104% (inactive)

Summary for this compound, "COc1ccc(CN2CCN(c3cccc(C)c3C)CC2)cc1OC" : viability is 54% (inactive)

====

- MEASUREMENT_PROTOCOL: growth suppression of beta-catenin knockout HCT116, pilot screen, human colon tumor cells (AID 823);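 also: 0% = wells killed by 20 µM Hyamine and 100% = untreated DMSO cell wells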
- CONDITION_NOTES: CellTiter-Glo, 60 h, at 10 µM
Inconclusive results are not listed. Calls of active or inactive are those of the source.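 The calls were made as follows: active = cell viability at or below a set limit in both duplicate runs, the limit being the all-compound median minus 4 SD (cut at about 23% in these data, passing the limit was not always enough); inconclusive = no clear call, values can overlap the other calls; inactive = the rest.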
One label from this list, please: T = active, F = inactive

Please review the following examples before continuing.
compound="OC(COc1ccc2ccccc2c1)CN1CCN(c2ccc(F)cc2)CC1 (stereo not drawn)" assigned_class=F
compound=c1ccc(Nc2nc(N3CCCCC3)nc(N3CCNCC3)n2)cc1 assigned_class=T
compound="O=C(Nc1nccs1)C1CCCN(S(=O)(=O)c2cccc3cccnc23)C1 (stereo not drawn)" assigned_class=F
compound=Cc1ccc(-n2c(SCC(N)=O)nc3c([nH]c4ccccc43)c2=O)cc1 assigned_class=F

Inquiry: Give the logged outcome of this assay for the following compound: "O=C1c2cccc3cccc(c23)C(=O)N1c1nccs1"
Reply text: F

Inquiry: Give the logged outcome of this assay for the following compound: CC1CN(c2ncnc3c2cnn3-c2ccc(Cl)cc2)CC(C)O1 (stereo not drawn)
Reply text: F

Inquiry: Give the logged outcome of this assay for the following compound: "COc1ccc(-c2nc(CS(=O)(=O)CC(=O)Nc3ccc(Cl)cc3)c(C)o2)cc1"
Reply text: F

Inquiry: Give the logged outcome of this assay for the following compound: CCN1CCN(C(=O)CS(=O)Cc2nc(-c3ccc(OC)cc3)oc2C)CC1 (stereo not drawn)
Reply text: F

Inquiry: Give the logged outcome of this assay for the following compound: "CCOC(=O)N1CCN(Cc2nc3c(c(=O)n(C)c(=O)n3C)n2CCC(C)C)CC1"
Reply text: F

====

- MEASUREMENT_PROTOCOL: inhibitors of the yeast RAM network, pilot screen, dse1pr::URA3 reporter, 5-FOA selection (AID 869);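 also: 0% = DMSO wells with no growth and 100% = 10 µM 1-NA-PP1 with full growth; RAM network block rescues cells from 5-FOA so hits raise OD615 growth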
- CONDITION_NOTES: S. cerevisiae dse1pr::URA3 5-FOA growth, OD615, 2 d; at 10 µM; stronger effect = higher value; strain carries analog-sensitive mutant Cbk1 kinase
RECORDED_ENDPOINT: inhibition (%)
Write the answer as a number in %, unit excluded.

molecule=Cc1ccc2oc(=O)c3cnn(CC(=O)NCCCOC(C)C)c3c2c1 experimental_value=1.87

Summary for this molecule, "O=C(CCn1c(=O)[nH]c2ccsc2c1=O)N1CCc2ccccc2C1" : inhibition is 2.71

Summary for this molecule, "O=C(Cn1c(=O)oc2cc(S(=O)(=O)N3CCCC3)ccc21)NCc1ccccn1" : inhibition is 1.01

Summary for this molecule, "O=C(Nc1ccc(Br)cc1Cl)c1cnccn1" : inhibition is 1.97

Summary for this molecule, CCOc1ccc(C2N(c3ccc(OC)cc3)C(=O)C3CCCN32)cc1OC (stereo not given) : inhibition is 1.57

====

- MEASUREMENT_PROTOCOL: growth suppression of PTEN-deleted HCT116, pilot screen, cell-based, HCT116 clonal line, CellTiter-Glo (AID 824);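 also: 0% = 20 µM Hyamine control and 100% = vehicle cell control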
- CONDITION_NOTES: 60 h, at 10 µM, stronger effect = lower value
Results filed as inconclusive are left out.
RECORDED_ENDPOINT: viability (%)
Write the answer as a number in %, unit excluded.

compound=CC(C)c1nnc(NC(=O)CSc2ncn[nH]2)s1 recorded_endpoint=viability experimental_value=94.2
compound=Cc1cc(-c2c(C)n([O-])c(C)c(C)[n+]2=O)ccc1F recorded_endpoint=viability experimental_value=98.2
compound=COc1ccc(C2=[N+]([O-])C(C)(C)N(O)C2(C)C)cc1 recorded_endpoint=viability experimental_value=100
compound="COc1ccc(Cl)cc1C(=O)NCC(c1ccco1)N1CCCC1 (stereo not given)" recorded_endpoint=viability experimental_value=80.7
compound=N#C/C(=C1/CCCCCN1)c1nnc2n1CCCCC2 recorded_endpoint=viability experimental_value=101
compound=CCC(CC)C(=O)Nc1cc(C)c2c(=O)oc3ccccc3c2n1 recorded_endpoint=viability experimental_value=64.2
compound=CCn1cc(C(=O)NCCCOC)c2cc(OC)c(OC)cc2c1=O recorded_endpoint=viability experimental_value=104
compound=CC(C)N1CC(O)=C(c2ccccc2)C1=N recorded_endpoint=viability experimental_value=97.2

Read the next record carefully.
Summary for this compound, O=C(COC(=O)C(O)c1ccccc1)c1ccc2c(c1)OCCO2 (stereo not given) : viability is 106
